Tested on: SW-620
Experiment: NCI-60 screening, one-dose (10 µM) and five-dose, SRB
Type: cell-based, human
Experimental Setup: Homo sapiens; 10 μM; SW-620, Colon Cancer; read-out: Growth percentage
Listed compounds paired with reported activity at 10 µM
Answer in %, number only, no unit symbol.

// known answers, use as guide
COc1ccc(/C=C/C(=O)c2sc(SCC(=O)N3CCN(c4cc5c(cc4F)c(=O)c(C(=O)O)cn5C4CC4)CC3)nc2C)cc1    123
Cc1nc(SCC(=O)N2CCN(c3cc4c(cc3F)c(=O)c(C(=O)O)cn4C3CC3)CC2)sc1C(=O)/C=C/c1cccc(Cl)c1    53.3

What does the record list as activity at 10 µM for "Cc1nc(SCC(=O)N2CCN(c3cc4c(cc3F)c(=O)c(C(=O)O)cn4C3CC3)CC2)sc1C(=O)/C=C/c1ccc(Br)cc1" ? 116

Subsequent entry: "COc1cccc(/C=C/C(=O)c2sc(SCC(=O)N3CCN(c4cc5c(cc4F)c(=O)c(C(=O)O)cn5C4CC4)CC3)nc2C)c1OC" 90.7

----------
Listed compounds paired with reported activity at 10 µM
Test system: SF-539
Experiment: NCI-60 screening, one-dose (10 µM) and five-dose, SRB
Type: cell-based, human
Experimental Setup: Homo sapiens, SF-539, 10 μM; SF-539, CNS Cancer; read-out: Growth percentage

// known answers, use as guide
Cc1nc(SCC(=O)N2CCN(c3cc4c(cc3F)c(=O)c(C(=O)O)cn4C3CC3)CC2)sc1C(=O)/C=C/c1ccc(F)cc1 [Compound 4e]    99%
Cc1nc(SCC(=O)N2CCN(c3cc4c(cc3F)c(=O)c(C(=O)O)cn4C3CC3)CC2)sc1C(=O)/C=C/c1ccc(N(C)C)cc1 [Compound 4i]    74.4%

Now consider the entry below.
What does the record list as activity at 10 µM for Cc1nc(SCC(=O)N2CCN(c3cc4c(cc3F)c(=O)c(C(=O)O)cn4C3CC3)CC2)sc1C(=O)/C=C/c1ccc([N+](=O)[O-])cc1 [Compound 4h] ? 67.9%

----------
Tested on: NCI-H23
Experiment: NCI-60 screening, one-dose (10 µM) and five-dose, SRB
Format: cell-based, human
Experimental Setup: Homo sapiens; 10 μM; NCI-H23, Non-Small-Cell Lung Cancer; read-out: Growth percentage
Outcome Measure: activity at 10 µM (%)
Answer in %, number only, no unit symbol.

// known answers, use as guide
Cc1nc(SCC(=O)N2CCN(c3cc4c(cc3F)c(=O)c(C(=O)O)cn4C3CC3)CC2)sc1C(=O)/C=C/c1ccc(N(C)C)cc1    76.2
Cc1nc(SCC(=O)N2CCN(c3cc4c(cc3F)c(=O)c(C(=O)O)cn4C3CC3)CC2)sc1C(=O)/C=C/c1ccc([N+](=O)[O-])cc1    73.2
CC(=O)c1sc(SCC(=O)N2CCN(c3cc4c(cc3F)c(=O)c(C(=O)O)cn4C3CC3)CC2)nc1C    106
Cc1nc(SCC(=O)N2CCN(c3cc4c(cc3F)c(=O)c(C(=O)O)cn4C3CC3)CC2)sc1C(=O)/C=C/c1cccc(F)c1    45.6

Now consider the entry below.
What does the record list as activity at 10 µM for "Cc1nc(SCC(=O)N2CCN(c3cc4c(cc3F)c(=O)c(C(=O)O)cn4C3CC3)CC2)sc1C(=O)/C=C/c1ccc(Br)cc1" ? 102
